- Tested on: SF-295 CNS
- protocol_text: NCI-60 one-dose screen, 48 h
- experimental_parameters: 10 µM unless noted
The panel holds about 83,000 compounds, 20% with a hit somewhere; the sample as a whole holds those more often. Calls of active or inactive are those of the source. The calls were made as follows: active = growth percent below 10; inactive = the rest.
// one of active, inactive, no free text

Data request: For S=C1CCSC(=S)N1CCCN1C(=S)CCSC1=S , what call appears in the results of this test?
Data returned: inactive

New cases:
Data request: For O=[N+]([O-])c1ccc(S(=O)(=O)N2CCN(C3=NS(=O)(=O)c4ccccc4N3c3ccccc3)CC2)cc1 , what call appears in the results of this test?
Data returned: inactive

Data request: For CCCCNC(=O)Oc1ccc(/C(=C(/CC)Cc2ccccc2)c2ccc(OCCN3CCCCCC3)cc2)cc1 , what call appears in the results of this test?
Data returned: inactive

Data request: For Brc1c2c(c(Br)c3ccccc13)CCCC2 , what call appears in the results of this test?
Data returned: inactive

Data request: For COc1ccc(-c2cc(-c3ccc(Cl)cc3)c(C#N)c(=O)n2CCCCC(=O)Nc2ccccc2N)cc1 , what call appears in the results of this test?
Data returned: active

Data request: For CC(=O)Cc1nsc(NC(=O)c2cc(-c3cc(Cl)cc(Cl)c3)oc2C)n1 , what call appears in the results of this test?
Data returned: inactive

Data request: For COc1ccc(C(=O)Nc2cccc(C3CC(=O)c4c(cc(OC)c(OC)c4OC)O3)c2)cc1 (centres undefined) , what call appears in the results of this test?
Data returned: active

Data request: For N#Cc1c(N)nnn1Cc1cc(=O)oc2c1ccc1ccccc12 , what call appears in the results of this test?
Data returned: inactive
